Experiment: Volume of distribution at steady state in mouse xenografted with human MIAPaCa2 cells at 9.1 mg/kg, iv administered as single dose
Assay type: ADME, organism-based
Conditions: in vivo, read-out: Vdss
recorded_endpoint: Vd (L/kg)

compound_string: O=C1c2ccc3c4c(c(NCCN5CCCC5)cc(c24)C(=O)N1CCCN1CCOCC1)C(=O)N(CCCN1CCOCC1)C3=O
recorded_endpoint: Vd
experimental_result: 5.2

* * *

Experiment: Half life in mouse xenografted with human MIAPaCa2 cells at 14 mg/kg, iv administered as single dose
Assay type: ADME, organism-based
Settings: in vivo

compound_string: O=C1c2ccc3c4c(c(NCCN5CCCC5)cc(c24)C(=O)N1CCCN1CCOCC1)C(=O)N(CCCN1CCOCC1)C3=O
half-life: 960 min
